TARGET OF ASSAY: recombinant human ALK5 (TGF-βR1) protein (Homo sapiens)
Construct: purchased Life Technologies PR9075A
Sequence (P36897 34-503): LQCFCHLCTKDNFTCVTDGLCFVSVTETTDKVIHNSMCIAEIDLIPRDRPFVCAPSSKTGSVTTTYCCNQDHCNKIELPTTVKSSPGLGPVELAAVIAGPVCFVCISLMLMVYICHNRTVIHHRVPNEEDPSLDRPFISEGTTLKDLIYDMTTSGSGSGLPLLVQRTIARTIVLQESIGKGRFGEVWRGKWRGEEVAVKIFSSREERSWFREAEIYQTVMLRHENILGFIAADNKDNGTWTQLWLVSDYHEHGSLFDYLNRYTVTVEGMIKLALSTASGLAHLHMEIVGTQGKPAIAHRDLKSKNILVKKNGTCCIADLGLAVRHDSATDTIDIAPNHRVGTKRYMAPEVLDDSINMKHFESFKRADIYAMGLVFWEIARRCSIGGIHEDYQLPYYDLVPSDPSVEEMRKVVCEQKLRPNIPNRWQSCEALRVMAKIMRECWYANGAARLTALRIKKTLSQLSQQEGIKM
TEST: Biochemical ALK5 (TGF-βR1) assay to measure pKi (LANCE Ultra ULight kinase assay)
CONDITION INFO: apparent pKi from pIC50 by Cheng-Prusoff, read-out: ALK5 pKi (converted)
MEASUREMENT LABEL: Ki

Below, each entry is followed by its recorded Ki result.
{"columns": ["COMPOUND", "Ki"],
 "data": [
  ["Cc1cccc(-c2[nH]cnc2-c2ccc3ncc(NC4CCNC4)cc3c2)n1 (centres unmarked)", "0.0398 to 0.316 nM"],
  ["Cc1cccc(-c2nc3ccccn3c2-c2ccc3ncc(N4CCC(N5CCN(C)CC5)CC4)cc3n2)n1", "0.0398 to 0.316 nM"],
  ["Cc1cccc(-c2n[nH]cc2-c2ccc3ncc(-c4cnc5n4CCN5)cc3n2)n1", "< 0.0316 nM"],
  ["Cc1cccc(-c2n[nH]cc2-c2ccc3ncc(N(C)CC4CNC4)cc3n2)n1", "< 0.0316 nM"],
  ["Cc1cccc(-c2[nH]cnc2-c2ccc3ncc(N4CCC(NCCSC5CCOC5=O)C4)cc3c2)n1 (centres unmarked)", "< 0.0316 nM"],
  ["Cc1cccc(-c2[nH]ncc2-c2ccc3ncc(C(=O)O[C@H]4CCNC4)cc3n2)n1", "0.398 to 3.16 nM"],
  ["Cc1cccc(-c2[nH]cnc2-c2ccc3ncc(C4=CC[C@H](NC(=O)[C@@H]5CCC(=O)N5)CC4)cc3c2)n1", "0.0398 to 0.316 nM"],
  ["Cc1nc(-c2nc3ccccn3c2-c2ccc3ncc(Br)cc3n2)ccc1F", "0.398 to 3.16 nM"],
  ["Cc1cccc(-c2[nH]cnc2-c2ccc3ncc(-c4csc(C(=O)O[C@H]5CCN(C)C5)c4)cc3c2)n1", "0.0398 to 0.316 nM"],
  ["Cc1cccc(-c2[nH]cnc2-c2ccc3ncc(C(=O)O[C@H]4CC[C@@](C)(N)CC4)cc3c2)n1", "0.0398 to 0.316 nM"]
]}

Could you share which Ki value was measured for `Cc1cccc(-c2[nH]cnc2-c2ccc3ncc(-c4cc(C(=O)O[C@H]5CCNC5)cs4)cc3c2)n1` ?
< 0.0316 nM

Which Ki is reported for this compound? `Cc1cccc(-c2[nH]cnc2-c2ccc3ncc(-c4cccc(C(=O)O[C@@H]5CCNC5)n4)cc3c2)n1`
< 0.0316 nM

Name the reported Ki value associated with the compound `Cc1cccc(-c2n[nH]cc2-c2ccc3ncc(N4CCC[C@H]4CO)cc3n2)n1`
0.0398 to 0.316 nM

Consider the compound shown here: `Cc1cccc(-c2n[nH]cc2-c2ccc3nccc(N)c3n2)n1` What is its recorded Ki?
0.398 to 3.16 nM
